Please respond with reported EC50 for every item in the list.
target: CatSper (Homo sapiens, UniProt Q7RTX7+Q86XQ3+Q8NEC5+Q96P56); construct: Motile spermatozoa were selected by a ‘swim-up’ procedure; endogenous in cells; host or cells: motile human spermatozoa (swim-up) from healthy donors; experiment: Steroid-induced increase in [Ca2+]i in human sperm (Fluo-4 HTS assay, screen 1 activators); format: cell-based; settings: pooled from 3 independent experiments; read-out: Mean EC50 µM (±SD)
Give bare numbers, in µM.

The following compounds have reported results that may help.
[[record]]
compound = "C[C@H](CCC(=O)O)[C@H]1CC[C@H]2[C@@H]3[C@@H](O)C[C@@H]4C[C@H](O)CC[C@]4(C)[C@H]3CC[C@]12C"
quantitative_readout = 7.89

[[record]]
compound = "C[C@]12CC[C@@H]3c4ccc(O)cc4C[C@@H](CCCCCCCCC[S+]([O-])CCCC(F)(F)C(F)(F)F)[C@H]3[C@@H]1CC[C@@H]2O (stereo partly shown)"
quantitative_readout = 2.24

[[record]]
compound = "C[C@]12CC[C@@H](O)C[C@H]1CC[C@@H]1[C@@H]2CC[C@]2(C)C(=O)CC[C@@H]12 [3-alpha-hydroxy-5-beta-androstan-17-one]"
quantitative_readout = 0.915

[[record]]
compound = "CC(=O)O[C@]1(C(C)=O)CC[C@H]2[C@@H]3C=C(Cl)C4=CC(=O)CC[C@]4(C)[C@H]3CC[C@@]21C [chlormadinone acetate]"
quantitative_readout = 34.7

[[record]]
compound = "C#C[C@]1(O)CC[C@H]2[C@@H]3CCC4=CCCC[C@@H]4[C@H]3CC[C@@]21C"
quantitative_readout = 17.3

[[record]]
compound = "C[C@]12CCC(=O)C=C1CC[C@@H]1[C@@H]2C(=O)C[C@]2(C)C(=O)CC[C@@H]12"
quantitative_readout = 14.5

[[record]]
compound = "C[C@]12CCC(=O)C=C1C=C[C@@H]1[C@@H]2CC[C@@]2(C)[C@H]1CC[C@@]21CCC(=O)O1"
quantitative_readout = 7.51

[[record]]
compound = "C[C@]12CC[C@@H]3c4ccc(O)cc4CC[C@H]3[C@@H]1CC[C@@H]2O"
quantitative_readout = 0.761


Kindly give each listed record's EC50.
1. C[C@]12CC[C@@H]3c4ccc(OS(=O)(=O)O)cc4CC[C@H]3[C@@H]1CCC2=O [Estropipate]
2. C#C[C@]1(O)CC[C@H]2[C@@H]3CCc4cc(O)ccc4[C@H]3CC[C@@]21C
3. C#C[C@]1(OC(C)=O)CC[C@H]2[C@@H]3CCC4=CC(=NO)CC[C@@H]4[C@H]3CC[C@@]21CC (mixture of isomers) [norgestimate]
4. C[C@]12C[C@H](O)[C@H]3[C@@H](CCC4=CC(=O)CC[C@@]43C)[C@@H]1CC[C@@H]2C(=O)CO
5. CC(C)(C)NC(=O)[C@H]1CC[C@H]2[C@@H]3CC[C@H]4NC(=O)C=C[C@]4(C)[C@H]3CC[C@]12C [finasteride]
6. CC(=O)O[C@]1(C(C)=O)CC[C@H]2[C@@H]3C=C(C)C4=CC(=O)CC[C@@H]4[C@H]3CC[C@@]21C [nomegestrol acetate]
7. C=C1C[C@@H]2[C@H](CC[C@]3(C)C(=O)CC[C@@H]23)[C@@]2(C)C=CC(=O)C=C12

## Result
1: 0.159; 2: 1.8; 3: 0.918; 4: 2.94; 5: 0.78; 6: 22.7; 7: 0.557
